Origin of the recorded values: patent US20240408169A1

system: NCI-H1048 cells; experiment: MTT proliferation assay, NCI-H1048; format: cell-based; settings: 5 days compound exposure, 1:3 serial dilution starting at 10 μM;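 also: Dose-response in 96-well plates over 8 or 10 concentration points, with exposure spanning 3-4 cell doublings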
*1 amine or outer side, *2 acyl side, *3 side chain or, on linkers, in order; H or OH if unused. Where a SMILES comes first, the peptide text is derived from it. Bridges are numbered along the chain shown (N, C = ends). [ ]: non-standard residue; d: D form. The star is where a group is joined. X73 = CN([C@@H](Cc1cc(Cl)ccc1-c1ccc(N2CCN(Cc3cnn(C)c3)CC2)cc1)C(=O)[*:2])[*:1]; NMePhe(5-Cl,2-O(2-Pym)) = CN[C@@H](Cc1cc(Cl)ccc1Oc1ncccn1)C(=O)O; NMehhhLys(Me) = CN([C@@H](CCCCCCCN(C)[*:3])C(=O)[*:2])[*:1]; NMe(hhhLys) = CN([C@@H](CCCCCCCN[*:3])C(=O)[*:2])[*:1]; Cyclobutanecarbonyl(1-CF3) = O=C(C1(C(F)(F)F)CCC1)*; cBuCO(3,3-F2-1-CF3) = O=C(C1(C(F)(F)F)CC(F)(F)C1)*; Pro(trans-4-F) = O=C(O)[C@@H]1C[C@@H](F)CN1; Gly(cPr) = N[C@H](C(=O)O)C1CC1
Some molecules, each annotated with its measured GI50.
Test readout: GI50 (nM)

1) CC(C)C[C@@H]1NC(=O)[C@@H](N(C)C(=O)[C@@H](NC(=O)[C@@H]2C[C@@H](F)CN2C(=O)C2(C(F)(F)F)CC(F)(F)C2)C2CC2)CCCCCCCN(C)C(=O)[C@H](Cc2cc(Cl)ccc2-c2ccc(N3CCN(Cc4cnn(C)c4)CC3)cc2)N(C)C1=O [Example 372] ({cBuCO(3,3-F2-1-CF3)}-[Pro(trans-4-F)][Gly(cPr)][NMehhhLys(Me)]L[X73]; lactam 3-C) :: 10
2) CC(C)C[C@@H]1NC(=O)[C@@H](N(C)C(=O)[C@@H](NC(=O)[C@@H]2C[C@@H](F)CN2C(=O)C2(C(F)(F)F)CCC2)C2CC2)CCCCCCCNC(=O)[C@H](Cc2cc(Cl)ccc2Oc2ncccn2)N(C)C1=O [Example 158] ({Cyclobutanecarbonyl(1-CF3)}-[Pro(trans-4-F)][Gly(cPr)][NMe(hhhLys)]L[NMePhe(5-Cl,2-O(2-Pym))]; lactam 3-C) :: 20
